- procedure_summary: log P determination by HPLC on reverse-phase column (EEC Directive 79/831 Annex V.A8)
- Type: physicochemical
- reported_conditions: reverse-phase C18 HPLC column; HPLC, reverse-phase column (C 18), 43° C., acidic range pH 2.7; read-out: logP
observable: chromatographic logP
Answers are plain numbers.

COC(=O)c1cc(C(=O)OC)n(-c2ncccc2Cl)n1 1.97
COC(=O)c1cc(CO)nn1-c1ncccc1Cl 1.26
Cc1cc(Cl)cc2c(=O)oc(-c3cc(Cn4nc(C(F)(F)F)cc4C(F)(F)F)nn3-c3ncccc3Cl)nc12 5.11

Fill in chromatographic logP for each of the 3 molecules listed.
1. O=C(O)c1cc(Cn2nc(C(F)(F)F)cc2C(F)(F)F)nn1-c1ncccc1Cl
2. COC(=O)c1cc(Cn2nc(C(F)(F)F)cc2C(F)(F)F)nn1-c1ncccc1Cl
3. COC(=O)c1cc(COS(C)(=O)=O)nn1-c1ncccc1Cl

[A]
[2.86, 3.71, 1.55]

###

For each record, write down the corresponding logP.
- procedure_summary: log P determination by HPLC on reverse-phase column (EEC Directive 79/831 Annex V.A8)
- Type: physicochemical
- reported_conditions: HPLC on reverse-phase column
One number for each entry.

molecule	logP
CNC(=O)c1cc(Cl)cc(C)c1NC(=O)c1cc(Cn2nnn(CC(F)(F)F)c2=O)nn1-c1ncccc1Cl	2.51
Cc1cc(Br)cc(C(=O)NC(C)(C)CS(C)(=O)=O)c1NC(=O)c1cc(Cn2nc(C(F)(F)F)nc2C(F)(F)F)nn1-c1ncccc1Cl	3.67
Cc1cc(Cl)cc(C(=O)NC(C)C)c1NC(=O)c1cc(Cn2nc(C(F)(F)F)n(-c3ccccc3)c2=O)nn1-c1ncccc1Cl	3.54
CNC(=O)c1cc(Br)cc(C)c1NC(=O)c1cc(Cn2cc(Cl)c(C(F)(F)C(F)(F)F)n2)nn1-c1ncccc1Cl	3.94
CNC(=O)OC[C@H](C)NC(=O)c1cc(Cl)cc(C)c1NC(=O)c1cc(Cn2nc(C(F)(F)F)nc2C(F)(F)F)nn1-c1ncccc1Cl	3.36

// for each molecule below, give its logP
1. Cc1cc(Cl)cc(C(=O)NC(C)C)c1NC(=O)c1cc(Cn2cnc(C(F)(F)F)c2)nn1-c1ncccc1Cl
2. Cc1cc(Br)cc(C(=O)NC(C)(C)CS(C)(=O)=O)c1NC(=O)c1cc(Cn2cc(Br)c(C(F)(F)F)n2)nn1-c1ncccc1Cl
3. Cc1cc(Cl)cc(C(=O)N[C@@H](C)C[S+](C)[O-])c1NC(=O)c1cc(Cn2cc(Br)c(C(F)(F)F)n2)nn1-c1ncccc1Cl (some centres unmarked)
4. Cc1cc(Br)cc(C(=O)NC(C)CS(C)(=O)=O)c1NC(=O)c1cc(Cn2cc(Br)c(C(F)(F)F)n2)nn1-c1ncccc1Cl (centres unmarked)

[A]
1. 2.77
2. 3.57
3. 2.91
4. 3.32

Each molecule below has a reported value. Please supply its logP.
1. CNC(=O)c1cc(Cl)cc(C)c1NC(=O)c1cc(Cn2nnn(-c3ccc(C(F)(F)F)cc3Cl)c2=O)nn1-c1ncccc1Cl
2. Cc1cc(Cl)cc(C(=O)NC(C)C)c1NC(=O)c1cc(Cn2cc(C(F)(F)C(F)(F)F)cn2)nn1-c1ncccc1Cl
3. Cc1cc(Cl)cc(C(=O)NC(C)C)c1NC(=O)c1cc(Cn2cc(C(F)(F)F)cn2)nn1-c1ncccc1Cl
4. Cc1cc(Cl)cc(C(=O)N[C@@H](C)CS(C)(=O)=O)c1NC(=O)c1cc(Cn2cc(Br)c(C(F)(F)F)n2)nn1-c1ncccc1Cl
5. Cc1cc(Cl)cc(C(=O)NC(C)C)c1NC(=O)c1cc(Cn2nnn(-c3c(C)cccc3Cl)c2=O)nn1-c1ncccc1Cl

[A]
3.51
3.67
3.20
3.26
3.52

###

- procedure_summary: log P determination by HPLC on reverse-phase column (EEC Directive 79/831 Annex V.A8)
- Type: physicochemical
Could you please report measured logP for the items listed next?
Give bare numbers.

Please review the entries below; each comes with its answer.
molecule	observable	measurement
N#CCNC(=O)c1cc(Cl)cc(Cl)c1NC(=O)c1cc(Cn2cnc(C(F)(F)C(F)(F)F)n2)nn1-c1ncccc1Cl [I-1-337]	logP	2.56
CC(C)NC(=O)c1cc(Cl)cc(Cl)c1NC(=O)c1cc(Cn2cnc(C(F)(F)C(F)(F)F)n2)nn1-c1ncccc1Cl [I-1-340]	logP	2.55
CNC(=O)c1cc(C#N)cc(C)c1NC(=O)c1cc(Cn2cc(C(F)(F)C(F)(F)F)c(C(F)(F)C(F)(F)F)n2)nn1-c1ncccc1Cl	logP	4.08

// next item, logP requested
[Q] What does the data say about its logP? Entry: `Cc1cc(I)cc(C(=O)NC(C)C)c1NC(=O)c1cc(Cn2nc(C(F)F)c([N+](=O)[O-])c2C(F)F)nn1-c1ncccc1Cl`
[A] 3.67

###

- procedure_summary: log P determination by HPLC on reverse-phase column (EEC Directive 79/831 Annex V.A8)
- Type: physicochemical
observable: logP
Answers are plain numbers.

molecule	logP
Cc1cc(I)cc(C(=O)NCC2CC2)c1NC(=O)c1cc(Cn2nc(C(F)(F)F)nc2C(F)(F)F)nn1-c1ncccc1Cl	4.13
CSC[C@H](C)NC(=O)c1cc(Cl)cc(C)c1NC(=O)c1cc(Cn2nnc(-c3ccc(Cl)nc3)n2)nn1-c1ncccc1Cl	3.67

Now consider a different molecule.
[Q] What logP value was documented for this molecule, CNC(=O)c1cc(Cl)cc(Cl)c1NC(=O)c1cc(Cn2cnc(C(F)(F)C(F)(F)F)n2)nn1-c1ncccc1Cl [I-1-326] ?
[A] 2.55

###

- procedure_summary: log P determination by HPLC on reverse-phase column (EEC Directive 79/831 Annex V.A8)
- Type: physicochemical
- Experimental: The log P values stated in the foregoing tables and preparation examples are determined in accordance with EEC Directive 79/831 Annex V.A8 by means of HPLC (High Performance Liquid Chromatography) on a reverse-phase column (C 18). Temperature: 43° C. […] Calibration is with unbranched alkan-2-ones (having 3 to 16 carbon atoms) of known log P value (log P values determined from the retention times by linear interpolation between two successive alkanones).
Consider the following molecules; for each one, report its logP.
Give bare numbers.

O=C(NCC1CC1)c1cc(Cl)cc(Cl)c1NC(=O)c1cc(Cn2nc(C(F)(F)F)nc2C(F)(F)F)nn1-c1ncccc1Cl 3.22

Quick batch: logP for everything below.
1. Cc1cc(I)cc(C(=O)NCC#N)c1NC(=O)c1cc(Cn2cc(Cl)c(C(F)(F)C(F)(F)F)n2)nn1-c1ncccc1Cl
2. CNC(=O)c1cc(Cl)cc(Cl)c1NC(=O)c1cc(Cn2ccc(C(F)(F)F)n2)nn1-c1ncccc1Cl
3. Cc1cc(I)cc(C(=O)NC(C2CC2)C2CC2)c1NC(=O)c1cc(Cn2cc(Cl)c(C(F)(F)C(F)(F)F)n2)nn1-c1ncccc1Cl
4. Cc1cc(C#N)cc(C(=O)NC(C)C)c1NC(=O)c1cc(Cn2nc(C(F)(F)F)cc2C(F)(F)F)nn1-c1ncccc1Cl
5. NC(=O)c1cc(Cl)cc(Cl)c1NC(=O)c1cc(Cn2cc(C(F)(F)C(F)(F)F)c(C(F)(F)C(F)(F)F)n2)nn1-c1ncccc1Cl
6. Cc1cc(C#N)cc(C(=O)NCC#N)c1NC(=O)c1cc(Cn2nc(C(F)(F)F)cc2C(F)(F)F)nn1-c1ncccc1Cl

[A]
1: 3.85; 2: 2.37; 3: 4.79; 4: 3.80; 5: 3.43; 6: 3.28

###

- procedure_summary: log P determination by HPLC on reverse-phase column (EEC Directive 79/831 Annex V.A8)
- Type: physicochemical
- reported_conditions: HPLC on reverse-phase column
Classify by measured logP: Fulfilled if it is equal to or exceeds 4, Not fulfilled if it is smaller.

Use the examples below as a reference point.
Cc1cc(Cl)cc(C(=O)NCC#N)c1NC(=O)c1cc(Cn2cc(Cl)c(C(F)(F)C(F)(F)F)n2)nn1-c1ncccc1Cl Not fulfilled
CNC(=O)c1cc(Br)cc(C)c1NC(=O)c1cc(Cn2nc(C(F)(F)C(F)(F)F)nc2C(F)(F)C(F)(F)F)nn1-c1ncccc1Cl Fulfilled
Cc1cc(Cl)cc(C(=O)NC2CC2)c1NC(=O)c1cc(Cn2cc(C(F)(F)C(F)(F)F)c(C(F)(F)C(F)(F)F)n2)nn1-c1ncccc1Cl Fulfilled
Cc1cc(Br)cc(C(N)=O)c1NC(=O)c1cc(Cn2ccc(C(F)(F)F)n2)nn1-c1ncccc1Cl Not fulfilled
CNC(=O)c1cc(Cl)cc(C)c1NC(=O)c1cc(Cn2cc(I)c(I)n2)nn1-c1ncccc1Cl Not fulfilled

[Q] Kindly determine if logP recorded for `CNC(=O)c1cc(Cl)cc(C)c1NC(=O)c1cc(Cn2cc(I)c(C(F)(F)C(F)(F)F)n2)nn1-c1ncccc1Cl` is above or exactly 4.
[A] Not fulfilled

[Q] Follow-up item: `CNC(=O)c1cc(Cl)cc(C)c1NC(=O)c1cc(Cn2cc(Br)c(C(F)(F)C(F)(F)F)n2)nn1-c1ncccc1Cl`
[A] Not fulfilled

[Q] Ok, now `Cc1cc(Cl)cc(C(=O)NC(C)C)c1NC(=O)c1cc(Cn2cncn2)nn1-c1ncccc1Cl`
[A] Not fulfilled
